- PROTOCOL_TEXT: folding stability dG unfold (combined trypsin and chymotrypsin); higher = more stable
Kind request: treat 1 kcal/mol as inclusive, so folding stability dG unfold at 1 kcal/mol or higher is rule met, anything lower is rule not met.

Here are 5 sequences together with their reported answers.
>>> category_label("SAGGSAGGSAGMYVITIKLPSGEVIKIKTDPKNPEEAIKKLEPQYPPAEFEVKEVPENEISAGGSAGGSAGG [r11_103_JUSTAS]")
"rule not met"
>>> category_label("SAGMAEEAREAARLFASELAPRFGVEAEIPEVRVEFDPETGEVHVHLEVLFRLPEPRTVRRDFVLVLPLSAG [r5_381_TrMRF]")
"rule met"
>>> category_label("SAGGMVTSTVSVDPSVPKTTTTETFSDGTRVVTTTTELPSGLTVTTTTVTVPPDGSTTATSTTTTIAPSAGG [r13_230_JUSTAS]")
"rule met"
>>> category_label("SAGGSAGGSAGKVVVDFGKPALAEAFGVPLSEIENMSEEEALALAKPLVEEGVVDEVVLSSAGGSAGGSAGG [r11_80_TrMRF]")
"rule not met"
>>> category_label("SAGGSAGGSAGPEVRPAPTPDGREVWVLRRTRRHPGPGDGVVVEEEVVPADDPEALRRRASAGGSAGGSAGG [r11_967_TrMRF]")
"rule not met"

## Input Please check the record SAGGSAKITLWIWMPPGNPDKMAEEIADYLAERHGWTVKIKDVQIERDPEDDQVWIPVKIEIQPPPSAGGSA [r15_70_TrROS] and state if its folding stability dG unfold is at or above 1 kcal/mol.
## Output rule met

## Input Also SAGGSAGGSAGGSMTTVTLPDAVSTNVTTTKLPDNTTKVDITTTFPDGSTRSSTITINPSAGGSAGGSAGGS [r4_452_JUSTAS] ?
## Output rule not met

## Input Further, for SAGGSAGGSASKDDKIVKVKVFTIKLKPNLEGLPKKVRELLEKLGIKEIKITFVSVFNPEDFSAGGSAGGSA [r18_127_TrMRF] ?
## Output rule met

## Input Same lookup for SAGGSADPEKVKLIEVEVEVHVEYDPEKGTYTVKAEFPDLTLSFEVPADSIHPDEKFKAPVLILVLSAGGSA [r15_190_TrMRF] , please.
## Output rule met

## Input Try this sequence too: SAGGSAGGSMGVTVTSEEDPEVRRVRETIETPSGSVVERDMVLTRPPDGPLLREALSEKVFRPSAGGSAGGS [r12_758_JUSTAS]
## Output rule not met

====

- PROTOCOL_TEXT: folding stability dG unfold from chymotrypsin proteolysis; higher = more stable
I would appreciate it if you labelled entries MET when folding stability dG unfold is 0.8 kcal/mol or higher, otherwise NOT MET.

Field: example entries. Status: answers known.
>>> category_label("SAGGSAGGMVYKIRDKETGKVYEVTIDEETNEITVYDVKTGKPVKTVNMTIEELKEAGYEVEPVSAGGSAGG [r6_831_TrROS_Hall]")
"MET"
>>> category_label("SAGLFDYLHKHNGLVRAALRRNGPPVVIPRLFRIEPDGDTYKLSVPDPDGVPQDWEVLDVEVFKPEDAISAG [r14_427_TrMRF]")
"NOT MET"
>>> category_label("SAGGSAGGSAGGSMLVELDENGKTLTIYDEETQELIEVEVEPAPPVEETVTEVSEEELKSAGGSAGGSAGGS [r4_56_TrROS_Hall]")
"NOT MET"
>>> category_label("MTKKTVTLPIPEPIRAAIEAGKPLPLEEIVDLVRDVVAKELGFKDVKVLSVEIKPLPNGEIVVEVTVEFPES [r1_290_TrMRF]")
"MET"
>>> category_label("SAGGSAGGSAGVVVKKPGTDVVYEITEEPGSYKVTITDPKTGTTKEFTVSPEVSIESLLLSAGGSAGGSAGG [r11_772_JUSTAS]")
"NOT MET"

## Input State whether the measured folding stability dG unfold reaches 0.8 kcal/mol, counting equality as reaching it, for SAGGSAGGSAGSMTVTSKYTLPGSSDVPVEVEVYSEAPVAVLTKPGAKTVLPLEALKALLSAGGSAGGSAGG [r11_370_JUSTAS]
## Output NOT MET

## Input Request: SAGGSAGGSAGGSGMTTTLLEQREFTLPNGEPVRVTVARFPGGEIVTETEDGVVTTDPLSAGGSAGGSAGGS [r4_111_JUSTAS]
## Output NOT MET

====

- PROTOCOL_TEXT: folding stability dG unfold (combined trypsin and chymotrypsin); higher = more stable
Use 3 kcal/mol as the dividing line for folding stability dG unfold, with the line itself on the Yes side and lower values as No.

>>> category_label("SAGGSVDIKRIEIYHPPDDKIYIRIDAVASPEHPEDPELRKAQAEALRKPVIEELMKKLGIEPEELSAGGSA [r2_306_JUSTAS]")
"No"

## Input Reported folding stability dG unfold reaches at least 3 kcal/mol for SAGGPNIELEFETYRDPDGMLVIKFHIRIKFGNKPVYIFVEGVIPPDGEAQIEDAYIFDADNGEWIPISAGG [r13_932_TrROS] ?
## Output Yes

## Input Entry SAGGSAGGSAGMKKVLIIGGPKEELAKELKEKSPDIEVEFLDPSEDLEEYKKKFDIVIIESAGGSAGGSAGG [r17_225_JUSTAS] please
## Output No

## Input // next record SAGGSMPPVVEPATLTLGNGPATQLQRYPGVELVVYRRPPENTILFLSSSGQVLEERKVSPETPVSELSAGG [r13_507_JUSTAS]
## Output No

## Input Try this sequence too: SAGGSAMKEIEINGYKVRIVKIDEKTGKITIYLYPNASEEMKEKVAELLKELGFEIEVEEVSPEELSAGGSA [r15_570_TrROS_Hall]
## Output Yes

## Input Next record, please: SAGKIEVKKNYVVIEIKVEGKELKLVIKVKTKEEQEKALELVKKLEEELKKEGLEVEVKVEVFKEGEEVSAG [r5_823_TrROS_Hall]
## Output No

====

- PROTOCOL_TEXT: folding stability dG unfold from chymotrypsin proteolysis; higher = more stable
MEASURED_ATTRIBUTE: folding stability dG unfold

>>> result("SAMKITIEEVEVKEGDTVTIRIDASEEELENFLKELAEKLGAEVVEVEVKKNENGSLEVTVKVKEVKKPSAG [r14_655_TrROS_Hall]")
"1.99 kJ/mol"

## Input I am curious: what folding stability dG unfold value has been reported for SAGGSAGGSSIGRTEYIPEENLIVREEPETGLTIITKKPPNGPNIVYTIEPETGEKTVEESLISAGGSAGGS [r12_55_JUSTAS] ?
## Output -0.395 kJ/mol

## Input Next sequence: SAMTTTTTTTDPASGRTVVTTTTPLPDGSVVTTEVDLSNPVRTTTTHPLTDGTPAPTTTTTALPADATLSAG [r14_64_JUSTAS]
## Output 0.23 kJ/mol

## Input Try the sequence SAMDLLRERGYDVEEVTKLRDEVLPNGTIVTLYEVTVRLPDRVITTPIKVSGESEEEAEKLAYETVARESAG [r14_726_JUSTAS]
## Output 2.43 kJ/mol

## Input Lookup SAGGSPNIKITSKEKEGSKLKYTIQTPDKTITIEYSEGKATFKFPDGSTKTLTGKGSLEKAIKEAVLSSAGG [r13_98_JUSTAS]
## Output 8.33 kJ/mol

## Input Thanks! And SAGGSAGGGDEVKTFKAKVKLVSVDPETGEQLVLAEVPDGKPILVKVPKSFPLKEDEIVEFELSSAGGSAGG [r6_68_TrMRF] ?
## Output 5.48 kJ/mol

## Input Same question for SAGGSAGGSAGPWVPIAPGPNGMWIWAEPDPDKFTIRMFPMSPDGKIPDVQEHEIPPEDFSAGGSAGGSAGG [r11_88_TrROS] please.
## Output 0.653 kJ/mol

## Input Input SAGGKPVRIRSSNGWPIEINPEDGTIKVEFPGYEVEFEVKEDGTIQFQIRNPKDGKPIMPMTLQIEKSAGGS [r16_760_TrROS]
## Output 4.5 kJ/mol

## Input Now the sequence SVIIYMPWDNIPNMLRQLKALAKNGQKPVTIYMPVPEDWRRELREWLDDYGITVEPHPDNDWYKIEIEPKSA [r9_600_TrROS]
## Output 13.9 kJ/mol

## Input Then this sequence: SAMVVIKPEGDKIVVEITLPDGSTKVIELPEVEKIEIKGDTLIITDPKTGKKIIPENTTVSNPKIEPAKSAG [r14_83_JUSTAS]
## Output -0.261 kJ/mol

## Input Next: SAGGSKTVTLTVTVEVNGKTFTVTVTLTYDEETNKLTITVEISAKSEEERERARELVEKLLKELLSSAGGSA [r2_259_TrROS_Hall]
## Output 20.7 kJ/mol

## Input Record: SAGGSAGGSAGDWIMFNFTYKDPGDPGKERTITILIPIPPPPPPEPKPVKDPNGNEGPVYSAGGSAGGSAGG [r11_419_TrROS]
## Output 7.78 kJ/mol

## Input Try this sequence next: SAGGMTIVLPNGITLTFYPDRTVTATVDFPGRPLTLTLDAASLAEAVAAVERAAAEWAAPAPPVVDLSSAGG [r13_896_TrMRF]
## Output 11.8 kJ/mol

## Input // repeat for SAGGKPGKWRKVEIWLPPDMPDIIEEIAKNWPNVNVDTERHPENGWYPVTGYFPDPNGKPVAKIHIWSAGGS [r8_267_TrROS] and report
## Output 3.9 kJ/mol
